Give normalized growth for every item shown.
experimentDescription: chemical genetic growth profiling, strain panel (AID 1159580);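 also: tested at 20 µM; growth read once vehicle control cultures reached saturation at 30 °C; 1 = growth at the plate median or of vehicle wells; lower values mean less growth of the strain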
setupConditions: S. cerevisiae deletion strains, growth OD, locus YOR070C, strain gyp1, hits give low values
Out of some 5,500 compounds screened, about 2,000 (36%) were called active. Roughly 18% stayed inconclusive and do not appear here. The list shows a part of the results.
Enter the number alone.

normalized growth reading for "CCCCC/C=C\C/C=C\C/C=C\C/C=C\CCCC(=O)O" : 0.98

normalized growth reading for "O=C(O)CCCN1C(=O)c2cccc3cccc(c23)C1=O" : 1.01

normalized growth reading for "COc1cc(O)c(C(=O)O)c(O)c1" : 0.994

normalized growth reading for "CC(C)=CCOc1cc2oc(=O)ccc2cc1O" : 0.947

normalized growth reading for "CC(C)=CCc1c(O)cc2occ(-c3ccc4c(c3)OCO4)c(=O)c2c1O" : 0.954

normalized growth reading for "COc1cc(O)c(C)c(O)c1" : 1.01

normalized growth reading for "COc1c2c(cc3occ(-c4ccc5c(c4)OCO5)c(=O)c13)OC(C)(C)C=C2" : 0.992

normalized growth reading for "O=C(CCCN1CC=C(n2c(=O)[nH]c3ccccc32)CC1)c1ccc(F)cc1" : 0.99

normalized growth reading for C[C@]12C=CC(=O)C=C1CCC1C2C(=O)C[C@@]2(C)C1CC[C@]2(O)C(=O)CO (stereo partly specified) : 1.01

normalized growth reading for "COc1ccc(Cc2nccc3cc(OC)c(OC)cc23)cc1OC" : 0.999

normalized growth reading for "CC(C)=CCC/C(C)=C/COc1ccc2ccc(=O)oc2c1" : 0.983

* * *

experimentDescription: chemical genetic growth profiling, strain panel (AID 1159580);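 also: tested at 20 µM; growth read once vehicle control cultures reached saturation at 30 °C; 1 = growth at the plate median or of vehicle wells; lower values mean less growth of the strain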
setupConditions: S. cerevisiae deletion strains, growth OD, locus YOL006C, strain TOP1, hits give low values
Hit rate of the full screen: of about 5,500 compounds, about 2,000 (36%) were called active. Roughly 18% stayed inconclusive and do not appear here. The list shows a part of the results.
Give normalized growth for every item shown.
Enter the number alone.

normalized growth reading for "CCN(CC)CCNC(=O)COc1ccc(OC)cc1" : 1.01

normalized growth reading for "Cc1ccc(S(=O)(=O)Oc2ccc(CC#N)cc2)cc1" : 0.971

normalized growth reading for "NC(=S)c1ccc2nonc2c1" : 0.976

normalized growth reading for C[C@]12C=CC(=O)C=C1CCC1C2CC[C@]2(C)C(=O)CCC12 (some centres undefined) : 0.98

normalized growth reading for Cn1nnnc1SCC1=C(C(=O)O)N2C(=O)C(NC(=O)C(OC=O)c3ccccc3)C2SC1 (centres undefined) : 1.02

normalized growth reading for "CC1(C)C[C@@H]2C(=O)CC[C@H]3O[C@]3(C)CC[C@H]21" : 1.07

normalized growth reading for CC(=O)OC1CCC23C(=O)OC45CCC(C6=CC(=O)OC6)C4(C)CCC2C5CCC3(O)C1 (centres undefined) : 1.28

normalized growth reading for CC1=C2CCC3C(CC[C@]4(C)C(=O)CCC34)[C@@]2(C)CCC1=O (some centres undefined) : 0.729

normalized growth reading for "Nc1ncnc2nc[nH]c12" : 0.783

normalized growth reading for "CCOc1ccc(Cc2nccc3cc(OCC)c(OCC)cc23)cc1OCC" : 0.771

normalized growth reading for "COc1ccc(Cc2nccc3cc(OC)c(OC)cc23)cc1OC" : 1.02

normalized growth reading for "CCC(=O)Oc1ccc(NC(=S)NCCCO)cc1" : 1.01

normalized growth reading for "O=C(O)c1cc2cc(Cl)ccc2[nH]1" : 1.05

normalized growth reading for "COc1c2occc2cc2ccc(=O)oc12" : 0.79

normalized growth reading for "O=C(c1ccc(Cl)cc1)N1CCN(c2ccc(C(F)(F)F)cn2)CC1" : 0.661

normalized growth reading for "CCCc1nc(C(C)(C)O)c(C(=O)OCc2oc(=O)oc2C)n1Cc1ccc(-c2ccccc2-c2nn[nH]n2)cc1" : 0.998

normalized growth reading for "CCNc1nc(Cl)nc(NC(C)C)n1" : 1.04

normalized growth reading for "CCSC(SCC)[C@H](O)[C@@H](O)[C@H](O)CO" : 1.01

normalized growth reading for "COc1ccccc1N=C1SCC(=O)N1Cc1ccco1" : 0.951

normalized growth reading for "CC(=O)N[C@@H](CC(=O)O)C(=O)O" : 1.04

normalized growth reading for "CC1(C)S[C@@H]2[C@H](NC(=O)COc3ccccc3)C(=O)N2[C@H]1C(=O)O" : 1.05

normalized growth reading for C/C=C(\C)C(=O)OC1[C@@H]2C=C3C4CC(=O)O[C@@H](c5ccoc5)[C@]4(C)CCC3[C@@](C)(C2=O)[C@@H](C(O)C(=O)OC)C1(C)C (some centres undefined) : 0.976

normalized growth reading for "O=c1c(-c2ccc3c(c2)OCO3)coc2cc(O)ccc12" : 1.01

normalized growth reading for CCC(=O)O[C@H]1CCC2C3CCc4cc(O)ccc4C3CC[C@@]21C (some centres undefined) : 0.958

normalized growth reading for "CCc1cccc(C)c1NC(=O)N1CCN(C(=O)OC(C)(C)C)CC1" : 1.01

normalized growth reading for "CC(=O)/C(=C\N(C)C)Sc1ccc(Cl)cc1" : 1.09

normalized growth reading for "COc1ccc2[nH]cc(CCNC(C)=O)c2c1" : 1.07

normalized growth reading for "Cc1oc(-c2ccccc2)cc1C(=O)N1CCN(c2ccc(C(F)(F)F)cn2)CC1" : 0.795

normalized growth reading for "CC(=O)CSc1nsc(SCC(C)=O)c1C#N" : 0.87
